measurement-target: Histamine H3 receptor (Homo sapiens, UniProt Q9Y5N1)
Sequence (Q9Y5N1 whole entry): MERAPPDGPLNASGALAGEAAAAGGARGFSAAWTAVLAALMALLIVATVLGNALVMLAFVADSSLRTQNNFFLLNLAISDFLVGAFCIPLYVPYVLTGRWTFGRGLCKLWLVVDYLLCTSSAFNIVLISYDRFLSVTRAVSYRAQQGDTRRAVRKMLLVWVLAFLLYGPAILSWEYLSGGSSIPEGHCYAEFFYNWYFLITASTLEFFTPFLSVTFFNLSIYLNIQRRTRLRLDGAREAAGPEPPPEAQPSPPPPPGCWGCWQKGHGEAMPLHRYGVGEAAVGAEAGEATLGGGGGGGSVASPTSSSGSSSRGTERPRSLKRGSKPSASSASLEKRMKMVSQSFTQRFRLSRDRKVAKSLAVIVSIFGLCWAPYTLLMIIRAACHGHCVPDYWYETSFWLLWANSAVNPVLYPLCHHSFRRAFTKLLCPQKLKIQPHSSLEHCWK
test-summary: Binding affinity to histamine H3 receptor
value-kind: Ki (µM)
Express the result in µM but write the number alone.

// query Identify the measured Ki of CN1CCN(C(=O)c2nc3cc(Cl)ccc3[nH]2)CC1 for Histamine H3 receptor (Homo sapiens, UniProt Q9Y5N1).
// result 14.1

* * *

System: Rattus norvegicus
test-summary: Maximum concentration in rat administered with 10 mg/kg, po
Assay type: ADME, organism-based
Design: dose 10 mg/kg, route oral
condition: in vivo
Hi there, I'd appreciate the recorded Cmax for every entry that follows.
Respond numerically; units are nM and should not be typed.

// query Give Rattus norvegicus Cmax for CN1CCN(C(=O)c2nc3cc(Cl)ccc3[nH]2)CC1
// result 1800

// query Field: Cmax (Rattus norvegicus). Entry: CN1CCN(C(=O)c2cc3cc(Cl)ccc3[nH]2)CC1
// result 1800
